Entries and their measured AUC of viability dose-response curve follow.
- Tested on: P12-Ichikawa
- TEST METHOD NOTES: AUC of viability dose-response curve (% viability x log10 dose units); higher = less sensitive
- ASSAY CONDITIONS: RPMI 5 mM glucose + 10% FBS; 48 h
Answer with the value's number alone.

Recorded AUC of viability dose-response curve, per entry:
{"MOLECULE": "CN(CCOc1ccc(CC2SC(=O)NC2=O)cc1)c1ccccn1 (stereo not drawn)", "AUC of viability dose-response curve": 465}
{"MOLECULE": "O=C1N(c2ccccc2)c2ccccc2C1(Cc1ccncc1)Cc1ccncc1", "AUC of viability dose-response curve": 437}
{"MOLECULE": "CO[C@@H](C(=O)N1Cc2[nH]nc(NC(=O)c3ccc(N4CCN(C)CC4)cc3)c2C1)c1ccccc1", "AUC of viability dose-response curve": 260}
{"MOLECULE": "COc1cc(C)c(/C=C/C(C)=C/C=C/C(C)=C/C(=O)O)c(C)c1C", "AUC of viability dose-response curve": 441}
{"MOLECULE": "COc1cc(NCc2ccc3nc(N)nc(N)c3c2C)cc(OC)c1OC", "AUC of viability dose-response curve": 383}
{"MOLECULE": "C[S+](=O)([O-])Oc1ccc2c(NC(N)=O)c(C(=O)c3ccc(Cl)cc3Cl)oc2c1", "AUC of viability dose-response curve": 463}

Attention now shifts to the item below.
**Q:** Return AUC of viability dose-response curve (reported value) for this molecule: CCNC(=O)Nc1ccc(Oc2ncnc(N)c2/C=N/OC)cc1Cl
**A:** 458

Entry source: the supplement of paper PMC11451515
